Where do the numbers come from? From patent US20230192890A1.

Listing of recorded absorbance 490 nm/630 nm by entry.
test_system: T1, TA0096 (peptide antigen corresponding to positions 340 to 356 of PAD4) (human)
T1 sequence (peptide): EENMDDQWMQDEMEIGY
protocol_summary: ELISA, peptide on plate (10 ug/mL)
# value in OD; strip the unit string

Answered cases to consult:
| binder | unit_descriptor | absorbance 490 nm/630 nm |
| --- | --- | --- |
| G6 (antibody, IgG1, V domains shown) VH: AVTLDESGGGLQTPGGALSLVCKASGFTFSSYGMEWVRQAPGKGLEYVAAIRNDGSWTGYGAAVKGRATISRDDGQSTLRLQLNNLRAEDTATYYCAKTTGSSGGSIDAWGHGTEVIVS VL: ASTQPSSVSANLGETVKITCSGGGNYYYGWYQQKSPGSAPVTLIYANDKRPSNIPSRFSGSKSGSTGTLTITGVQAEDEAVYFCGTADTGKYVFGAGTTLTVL | OD | 1.87 |
| A11 (antibody, IgG1, V domains shown) VH: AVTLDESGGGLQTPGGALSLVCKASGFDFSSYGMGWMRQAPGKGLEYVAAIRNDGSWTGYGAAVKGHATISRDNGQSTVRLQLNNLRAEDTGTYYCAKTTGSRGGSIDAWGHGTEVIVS VL: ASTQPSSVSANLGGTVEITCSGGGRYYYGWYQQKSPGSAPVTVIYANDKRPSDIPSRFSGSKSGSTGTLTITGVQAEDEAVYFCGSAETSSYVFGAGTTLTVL | OD | 1.81 |
| E9 (antibody, IgG1, V domains shown) VH: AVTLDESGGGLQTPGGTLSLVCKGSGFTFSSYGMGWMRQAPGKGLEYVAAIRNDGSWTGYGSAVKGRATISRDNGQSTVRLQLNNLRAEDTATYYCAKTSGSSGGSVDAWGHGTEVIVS VL: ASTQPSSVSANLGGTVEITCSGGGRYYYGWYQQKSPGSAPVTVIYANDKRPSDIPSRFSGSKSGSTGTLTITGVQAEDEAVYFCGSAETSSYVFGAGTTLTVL | OD | 1.79 |
| G8 (antibody, IgG1, V domains shown) VH: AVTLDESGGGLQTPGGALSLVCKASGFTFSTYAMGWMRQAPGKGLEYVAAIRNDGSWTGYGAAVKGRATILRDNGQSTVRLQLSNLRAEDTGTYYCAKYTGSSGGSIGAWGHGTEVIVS VL: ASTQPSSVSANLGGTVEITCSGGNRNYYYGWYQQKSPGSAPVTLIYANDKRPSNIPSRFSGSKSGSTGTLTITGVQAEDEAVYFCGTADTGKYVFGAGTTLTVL | OD | 1.88 |
| H7 (antibody, IgG1, V domains shown) VH: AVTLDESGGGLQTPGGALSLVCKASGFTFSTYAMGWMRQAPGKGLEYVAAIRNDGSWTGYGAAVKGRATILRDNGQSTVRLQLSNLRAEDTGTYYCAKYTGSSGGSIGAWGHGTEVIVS VL: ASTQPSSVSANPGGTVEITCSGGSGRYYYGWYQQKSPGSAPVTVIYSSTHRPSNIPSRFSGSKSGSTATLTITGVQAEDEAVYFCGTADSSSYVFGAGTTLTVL | OD | 1.82 |

Identify measured absorbance 490 nm/630 nm associated with G9 (antibody, IgG1, V domains shown) VH: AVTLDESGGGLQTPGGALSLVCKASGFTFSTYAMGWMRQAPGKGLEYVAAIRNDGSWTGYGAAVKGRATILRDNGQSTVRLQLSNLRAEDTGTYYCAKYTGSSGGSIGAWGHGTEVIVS VL: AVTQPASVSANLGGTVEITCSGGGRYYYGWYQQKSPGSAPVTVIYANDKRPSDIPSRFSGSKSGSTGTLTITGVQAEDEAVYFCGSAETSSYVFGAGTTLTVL
1.85
